Tested on: MCF7
Experiment: NCI tumour cell line growth inhibition, 48 h
Active and inactive are the calls of the source. No stated cut-off is given here; in the data, active = GI50 up to about 1.1 µM and inactive = higher.
Possible outcomes: active, inactive

1. CC1C(O)[C@@]2(OC[C@@]34C(=O)CC5(O)[C@H](CCC6Cc7nc8c(nc7C[C@]65C)CC5CC[C@@H]6C7=C[C@H]9O[C@@]%10(O[C@@](C)(CO)C[C@@H]%10O)C(C)[C@@]9(O)[C@]7(C)[C@@H](O)CC6[C@]5(C)C8)C3=CC[C@H]4C2C)OC1(C)C (stereo partly drawn)	active
2. Clc1cc2nnn(C3CCCO3)c2cc1Cl (stereo not drawn)	inactive
3. O=c1c(C(c2cc(OCc3ccccc3)cc(OCc3ccccc3)c2)c2c(O)oc3ccccc3c2=O)c(O)oc2ccccc12	inactive
